Collected microsomal CLint at 1 μM values appear next to each entry.
- PROCEDURE_DETAILS: Microsomal stability assay, mouse liver microsomes (MLM)
- Type: in vitro ADME
- CONDITION_DETAILS: 0.5 mg/mL protein, 1 μM substrate, 37° C.
Give the value in µL/min/mg but do not write µL/min/mg after it.

Recorded results for 2 molecules are shown here.
INSERT INTO measurements (molecule, unit_info, quantitative_result) VALUES
  ('O=C(CN1CC(O)C1)Nc1cc(Oc2ccc3c(c2)CC(c2nc(-c4ccccc4)c[nH]2)CO3)ccn1 (stereo not drawn)', 'µL/min/mg', 92.9),
  ('COc1ccsc1-c1c[nH]c(C2COc3ccc(Oc4ccnc5c4CCC(=O)N5)cc3C2)n1 (stereo not drawn)', 'µL/min/mg', 126);

// query Please give the measured microsomal CLint at 1 μM for this molecule: CN1CCC(C(=O)Nc2cc(Oc3ccc4c(c3)CC(c3nc(-c5ccccc5)c[nH]3)CO4)ccn2)CC1 (stereo not drawn)
// result 102

---

Examples of compounds with documented IC50 follow.
- Test system: constitutive ERK phosphorylation in HCT-116 cells
- PROCEDURE_DETAILS: HCT-116 AlphaLISA SureFire pERK1/2 cellular assay
- Type: cell-based, human
- CONDITION_DETAILS: Homo sapiens, HCT-116; HCT116 cells, 2 hr, absolute IC50; read-out: pERK HCT116 (2 hr) Abs pIC50 (converted)
Note: unit nM is implicit; provide only the numeric part.

// query Query (compound): O=C1CCc2c(Oc3ccc4c(c3)CC(c3nc5cc(C(F)(F)F)ccc5[nH]3)CO4)ccnc2N1 (centres unmarked) [Compound 22] ; field requested: IC50
// result 141

// query What about this compound? O=C1CCc2c(Oc3ccc4c(c3)CC(c3nc5cc(Cl)ccc5[nH]3)CO4)ccnc2N1 (centres unmarked) [Compound 25]
// result 85.1

// query Request: O=C1CCc2c(Oc3ccc4c(c3)CN(C(=O)Nc3cccc(C(F)(F)F)c3)CC4)ccnc2N1 [Compound 50]
// result 46.8

---

- PROCEDURE_DETAILS: Plasma protein binding assay, mouse plasma (mPPB)
- Assay type: in vitro ADME
- CONDITION_DETAILS: 5 μM, equilibrium dialysis 4 hours at 37° C.
Label No if mPPB (% free) falls below 0.6 % free; label Yes in every other case.

// query Is reported mPPB (% free) greater than or equal to 0.6 % free here: O=C(Nc1cc(Oc2ccc3c(c2)CC(c2nc(-c4ccccc4)c[nH]2)CO3)ccn1)C1CC1(F)F (stereo not shown)
// result No

---

- PROCEDURE_DETAILS: Plasma protein binding assay, human plasma (hPPB)
- Type: in vitro ADME
- CONDITION_DETAILS: 5 μM, equilibrium dialysis 4 hours 37° C.
Structures can show the parent of a compound that is named as a salt.
REPORTED_PROPERTY: hPPB (% free)
Output spec: scalar in % free, unitless text.

Answered cases to consult:
INSERT INTO results (compound, quantitative_result) VALUES
  ('O=C1CCc2c(Oc3ccc4c(c3)CN(C(=O)Nc3ccc(C(F)(F)F)cc3)CC4)ccnc2N1 [Compound 47]', 0.7),
  ('O=C1CCc2c(Oc3ccc4c(c3)CN(c3nc(-c5ccccc5)n[nH]3)CC4)ccnc2N1 [Compound 44, hydrochloride]', 0.3),
  ('O=C1CCc2c(Oc3ccc4c(c3)CC(c3nc(-c5ccnc(C(F)(F)F)c5)c[nH]3)CO4)ccnc2N1 (stereo not drawn) [Compound 8]', 1.0);

// query If you can, please state the reported hPPB (% free) value of COc1ccccc1-c1c[nH]c(C2COc3ccc(Oc4ccnc5c4CCC(=O)N5)cc3C2)n1 (stereo not drawn) [Compound 1] .
// result 0.2

// query Try the compound O=C1CCc2c(Oc3ccc4c(c3)CC(c3nc(-c5cc(F)ccc5F)c[nH]3)CO4)ccnc2N1 (stereo not drawn) [Compound 5]
// result 0.3

// query // same read-out, input: COc1ncc(-c2c[nH]c(C3COc4ccc(Oc5ccnc6c5CCC(=O)N6)cc4C3)n2)c(OC)n1 (stereo not drawn) [Compound 18]
// result 1.2

// query Another: O=C1CCc2c(Oc3ccc4c(c3)CC(c3nc5cc(F)c(F)cc5[nH]3)CO4)ccnc2N1 (stereo not drawn) [Compound 23]
// result 0.5

// query Now the compound COc1cc(-c2c[nH]c(C3COc4ccc(Oc5ccnc6c5CCC(=O)N6)cc4C3)n2)ccn1 (stereo not drawn) [Compound 19]
// result 1.9

// query Follow-up entry: CN(C)c1ccc2[nH]c(C3COc4ccc(Oc5ccnc6c5CCC(=O)N6)cc4C3)nc2c1 (stereo not drawn) [Compound 26]
// result 0.7

// query Same thing, different compound: COc1ccc(-c2c[nH]c(C3COc4ccc(Oc5ccnc6c5CCC(=O)N6)cc4C3)n2)cc1 (stereo not drawn) [Compound 10]
// result 0.6

// query Same for O=C1CCc2c(Oc3ccc4c(c3)CN(C(=O)Nc3ccccc3C(F)(F)F)CC4)ccnc2N1 [Compound 49]
// result 1.9

// query What about COc1cncc(-c2c[nH]c(C3COc4ccc(Oc5ccnc6c5CCC(=O)N6)cc4C3)n2)c1 (stereo not drawn) [Compound 17] ?
// result 0.7

// query Now give it for CC(C)NCc1cc(-c2c[nH]c(C3COc4ccc(Oc5ccnc6c5CCC(=O)N6)cc4C3)n2)cc(C(F)(F)F)c1 (stereo not drawn) [Compound 6] too.
// result 2.4
